- assay_system: Hormone-sensitive lipase (Rattus norvegicus, UniProt P15304)
- measurement_description: Irreversible inhibition of rat hormone sensitive lipase assessed as relative residual activity by kinetic analysis
endpoint_label: Ki (nM)
I only need the number, in nM, no unit after it.

Suppose we examine the molecule CCCCCCCCCCCCCCCCO[P@]1(=O)OC[C@@H]2COC(=O)C2=C(C)O1 (relative stereo) ; what Ki value has been reported?
40

----------
- assay_system: UniProt P15304
- Sequence (P15304 whole entry): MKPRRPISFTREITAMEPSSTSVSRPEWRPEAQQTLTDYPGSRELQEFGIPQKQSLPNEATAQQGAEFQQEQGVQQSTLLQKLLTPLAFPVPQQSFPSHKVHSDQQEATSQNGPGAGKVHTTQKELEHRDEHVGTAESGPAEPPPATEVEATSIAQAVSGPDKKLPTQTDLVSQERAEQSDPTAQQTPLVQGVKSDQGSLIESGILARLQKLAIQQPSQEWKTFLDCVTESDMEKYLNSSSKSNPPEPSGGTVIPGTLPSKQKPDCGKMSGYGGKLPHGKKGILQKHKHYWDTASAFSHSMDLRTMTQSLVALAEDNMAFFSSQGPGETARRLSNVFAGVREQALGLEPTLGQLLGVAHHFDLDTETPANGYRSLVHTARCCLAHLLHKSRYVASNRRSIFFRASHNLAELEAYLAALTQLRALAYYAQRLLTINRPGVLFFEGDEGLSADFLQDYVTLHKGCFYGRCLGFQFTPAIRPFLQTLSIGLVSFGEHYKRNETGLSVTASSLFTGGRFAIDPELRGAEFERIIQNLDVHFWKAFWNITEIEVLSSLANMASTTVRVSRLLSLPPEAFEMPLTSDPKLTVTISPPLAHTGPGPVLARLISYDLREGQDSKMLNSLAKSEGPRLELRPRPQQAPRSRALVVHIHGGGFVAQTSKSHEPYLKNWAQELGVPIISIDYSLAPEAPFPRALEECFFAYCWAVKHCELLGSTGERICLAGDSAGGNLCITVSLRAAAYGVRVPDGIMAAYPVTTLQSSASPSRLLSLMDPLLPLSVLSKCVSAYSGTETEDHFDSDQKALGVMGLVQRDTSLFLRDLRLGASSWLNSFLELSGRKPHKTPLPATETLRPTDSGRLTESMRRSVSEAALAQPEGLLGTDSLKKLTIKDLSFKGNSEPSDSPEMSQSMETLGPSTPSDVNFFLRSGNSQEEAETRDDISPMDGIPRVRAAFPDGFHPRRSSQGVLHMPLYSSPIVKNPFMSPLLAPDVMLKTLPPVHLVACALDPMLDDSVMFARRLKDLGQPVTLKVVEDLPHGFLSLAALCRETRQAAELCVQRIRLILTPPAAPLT
endpoint_label: pIC50
pIC50 field: float, defined as -log10 of concentration (mol/L).

Suppose we examine the molecule CCCCCCCCCCCCCCCO[P@]1(=O)CC[C@@H]2COC(=O)C2=C(C)O1 (racemic) ; what pIC50 value has been reported?
6.35

Would you kindly repeat that for CCCCCCCCCCCCCCCCO[P@]1(=O)OC[C@@H]2COC(=O)C2=C(C)O1 (relative stereo) ?
7.60

Would you kindly repeat that for CCCCCCCCCCCCCCCCO[P@]1(=O)OC[C@H]2COC(=O)C2=C(C)O1 (relative stereo) ?
6.38

Would you kindly repeat that for CCCCCCCCCCCCCCCO[P@]1(=O)CC[C@H]2COC(=O)C2=C(C)O1 (racemic) ?
6.33

Would you kindly repeat that for CCCCCCCCCCCCCCCCOP1(=O)OCCC(C(=O)OC)=C(C)O1 (stereo not drawn) ?
7.22
